Tested on: EW-13;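 also: growth inhibition of EW-13 cells, read out with a cell viability assay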
EXPERIMENTAL_DETAILS: cells
Type: functional, cell-based, Homo sapiens
ASSAY_CONTEXT: Homo sapiens, EW-13; read-out: IC50
Description: SANGER: Inhibition of human EW-13 cell growth in a cell viability assay.
pIC50: −log10 of the molar value.

COMPOUND	ASSAY_TARGET	pIC50
C=CC(=O)N1CCCC(Nc2nc(Nc3ccc(N(C)C(=O)CC)cc3)nc3[nH]cnc23)C1 (stereo not drawn)	EW-13	< 4.99
Cc1cc(N2CCOCC2)cc2[nH]c(-c3c(NC[C@@H](O)c4cccc(Cl)c4)cc[nH]c3=O)nc12	EW-13	< 5.29
O=C(NCCCNc1nc(Nc2cccc(NC(=O)N3CCCC3)c2)ncc1I)c1cccs1	EW-13	< 5.30

----------
Test system: KG-1;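 also: growth inhibition of KG-1 cells, read out by a cell viability assay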
EXPERIMENTAL_DETAILS: cells
Format: functional, cell-based, Homo sapiens
ASSAY_CONTEXT: Homo sapiens, KG-1
Description: SANGER: Inhibition of human KG-1 cell growth in a cell viability assay.

MOLECULE	IC50
COc1ccc(-c2cc3nccn3c(Nc3ncccc3C(N)=O)n2)cc1OC	2870 nM
COc1cc(N2CCC(N3CCN(C)CC3)CC2)ccc1Nc1ncc(Cl)c(Nc2ccccc2S(=O)(=O)C(C)C)n1 [TAE-684]	396 nM
OC[C@H](Cc1ccccc1)Nc1nc(Oc2ccc3c(c2)CCC3)nc2c1ncn2Cc1ccc(-c2ccccc2)cc1	> 10200 nM
NC(=O)c1ccc(N(C(N)=O)c2c(F)cccc2F)nc1-c1ccc(F)cc1F [VX-702]	> 2000 nM

----------
System: BXPC-3
EXPERIMENTAL_DETAILS: cells
Assay type: functional, cell-based
ASSAY_CONTEXT: Homo sapiens
Description: SANGER: Inhibition of human BxPC-3 cell growth in a cell viability assay.
Catalogue of IC50 readings, one per entry.

CHEM_SMILES	ASSAY_TARGET	IC50
O=C1NC(=O)c2c1c(-c1ccccc1Cl)cc1[nH]c3ccc(O)cc3c21	BXPC-3	> 2 µM
CN(NC(=O)CC(=O)NN(C)C(=S)c1ccccc1)C(=S)c1ccccc1	BXPC-3	> 0.2 µM
NC1(c2ccc(-c3nc4ccn5c(=O)[nH]nc5c4cc3-c3ccccc3)cc2)CCC1	BXPC-3	> 4 µM

----------
Catalogue of IC50 readings, one per entry.
Tested on: UO-31;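 also: cell viability assay measuring inhibition of cell growth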
EXPERIMENTAL_DETAILS: cells
Assay type: functional, cell-based
ASSAY_CONTEXT: Homo sapiens
Description: SANGER: Inhibition of human U031 cell growth in a cell viability assay.

CHEM_SMILES	ASSAY_TARGET	IC50
CC1=C(/C=C/C(C)=C/C=C/C(C)=C/C(=O)O)C(C)(C)CCC1	UO-31	> 10 µM
COC(=O)[C@H](CCSC)NC(=O)c1ccc(NC[C@@H](N)CS)cc1-c1ccccc1	UO-31	> 1.02 µM
Cc1ccc(-n2nc(C(C)(C)C)cc2NC(=O)Nc2ccc(OCCN3CCOCC3)c3ccccc23)cc1	UO-31	> 10 µM
O=C(NCCCNc1nc(Nc2cccc(NC(=O)N3CCCC3)c2)ncc1I)c1cccs1	UO-31	> 5 µM

----------
Catalogue of pIC50 readings, one per entry.
Test system: BFTC-909
EXPERIMENTAL_DETAILS: cells
Type: functional, cell-based
ASSAY_CONTEXT: Homo sapiens
Description: SANGER: Inhibition of human BFTC-909 cell growth in a cell viability assay.
pIC50: −log10 of the molar value.

CHEM_SMILES	ASSAY_TARGET	pIC50
Cc1ccc(-n2nc(C(C)(C)C)cc2NC(=O)Nc2ccc(OCCN3CCOCC3)c3ccccc23)cc1	BFTC-909	< 5.00
NC1(c2ccc(-c3nc4ccn5c(=O)[nH]nc5c4cc3-c3ccccc3)cc2)CCC1	BFTC-909	< 5.40
O=S(=O)(O)c1ccc2cc(/N=N/c3cc(S(=O)(=O)O)c4cccnc4c3O)ccc2c1	BFTC-909	< 4.80
CC1(C)CCC(c2ccc(Cl)cc2)=C(CN2CCN(c3ccc(C(=O)NS(=O)(=O)c4ccc(N[C@H](CCN5CCOCC5)CSc5ccccc5)c(S(=O)(=O)C(F)(F)F)c4)cc3)CC2)C1	BFTC-909	< 5.70
CC1=C(/C=C/C(C)=C/C=C/C(C)=C/C(=O)O)C(C)(C)CCC1	BFTC-909	< 5.00
